Kindly supply the reported GI50 values for the records listed here.
- Tested on: A549
- assay summary: Cytotoxicity against human A549 cells assessed as cell growth inhibition for 72 hrs by MTT assay
- Type: functional
- condition notes: Homo sapiens, A549, 72 h

Lookup: Find the measured GI50 of `CC(C)[C@@H]1C2=C(Oc3c1c(OCCCN1CCOCC1)cc1c3[C@@H](C(C)C)C3=C(O1)C(C)(C)C(=O)C(C)(C)C3=O)C(C)(C)C(=O)C(C)(C)C2=O` and report it.
Found: 65.7 µM

Lookup: Find the measured GI50 of CC(C)C(=O)c1c(O)c2c(c3c1OC1=C(C(=O)C(C)(C)C(=O)C1(C)C)[C@@H]3C(C)C)OC1=C(C(=O)C(C)(C)C(=O)C1(C)C)[C@@H]2C(C)C (racemic) and report it.
Found: 37 µM

Lookup: Find the measured GI50 of `CC(C)[C@@H]1C2=C(Oc3c1c(OCCCN(C)C)cc1c3[C@@H](C(C)C)C3=C(O1)C(C)(C)C(=O)C(C)(C)C3=O)C(C)(C)C(=O)C(C)(C)C2=O` and report it.
Found: 46 µM
